EXPERIMENT_SUMMARY: self-splicing fitness, log relative to wild type (ln ratio); higher = more splicing; Tetrahymena group I intron in knt gene, E. coli kanamycin selection, DiMSum; sequences stand for … in CUCUCU…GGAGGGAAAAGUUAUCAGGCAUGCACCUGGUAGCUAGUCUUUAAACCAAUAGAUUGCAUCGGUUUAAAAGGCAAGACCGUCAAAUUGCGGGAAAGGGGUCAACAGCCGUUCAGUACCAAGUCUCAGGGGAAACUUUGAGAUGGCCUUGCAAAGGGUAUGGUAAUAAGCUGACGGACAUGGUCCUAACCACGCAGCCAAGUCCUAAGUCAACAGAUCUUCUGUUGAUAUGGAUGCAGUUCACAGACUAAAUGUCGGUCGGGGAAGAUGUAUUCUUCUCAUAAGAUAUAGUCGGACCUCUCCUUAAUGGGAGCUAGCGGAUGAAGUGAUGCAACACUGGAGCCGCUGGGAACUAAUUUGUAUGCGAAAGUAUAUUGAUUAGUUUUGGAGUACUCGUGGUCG;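 also: selection with 25 µg/mL kanamycin versus none on LB agar overnight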
CONDITIONS: 30 °C
So basically: self-splicing fitness (ln) at -3 or higher? That is 1 (yes). Lower than -3? That is 0 (no).

{"ORDERED_RESIDUES": "UCAUAGCAAUAUUACGCGGU", "CLASS_ASSIGNMENT": "0 (no)"}

Query string: Reported self-splicing fitness (ln) reaches at least -3 for CUAAAGCAAUAUUACGAACU ?
Result string: 0 (no)

Query string: Please indicate if the recorded self-splicing fitness (ln) for UGAUAGCAAUAUUACGGUGA meets or exceeds -3.
Result string: 1 (yes)

====

EXPERIMENT_SUMMARY: self-splicing fitness, log relative to wild type (ln ratio); higher = more splicing; Tetrahymena group I intron in knt gene, E. coli kanamycin selection, DiMSum; sequences stand for … in CUCUCU…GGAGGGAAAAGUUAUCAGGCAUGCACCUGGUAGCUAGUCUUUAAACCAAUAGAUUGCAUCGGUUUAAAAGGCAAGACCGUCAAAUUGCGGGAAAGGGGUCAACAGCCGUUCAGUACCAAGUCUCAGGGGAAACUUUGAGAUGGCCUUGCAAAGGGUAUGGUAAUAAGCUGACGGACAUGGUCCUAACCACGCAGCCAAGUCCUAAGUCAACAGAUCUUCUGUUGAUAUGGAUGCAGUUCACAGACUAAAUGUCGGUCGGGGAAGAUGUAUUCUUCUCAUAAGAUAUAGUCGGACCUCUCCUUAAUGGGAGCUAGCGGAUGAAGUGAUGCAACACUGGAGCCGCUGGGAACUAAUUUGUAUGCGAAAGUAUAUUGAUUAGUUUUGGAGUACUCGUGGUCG
CONDITIONS: 30 °C
Label scheme for self-splicing fitness (ln): lower than -2 is criterion not met, -2 and above is criterion met.

{"ORDERED_RESIDUES": "GGUGAGCAAUAUUACGUGAA", "CLASS_ASSIGNMENT": "criterion met"}
{"ORDERED_RESIDUES": "AGGUAGCAAUAUUACGGGUG", "CLASS_ASSIGNMENT": "criterion not met"}
{"ORDERED_RESIDUES": "GCUAAGCAAUAUUACGCUGC", "CLASS_ASSIGNMENT": "criterion not met"}
{"ORDERED_RESIDUES": "UCCAAGCAAUAUUACGAACC", "CLASS_ASSIGNMENT": "criterion met"}
{"ORDERED_RESIDUES": "GAUGAGCAAUAUUACGCAGU", "CLASS_ASSIGNMENT": "criterion not met"}

Query string: hey, is self-splicing fitness (ln) for this one >= -2? UCCGAGCAAUAUUACGUGCG
Result string: criterion not met

Query string: I'd appreciate it if you could say whether AGGCAGCAAUAUUACGAGUC has self-splicing fitness (ln) at least equal to -2.
Result string: criterion not met

Query string: State whether the measured self-splicing fitness (ln) reaches -2, counting equality as reaching it, for GGUAAGCAAUAUUACGUGAC
Result string: criterion met

Query string: Please indicate if the recorded self-splicing fitness (ln) for AGUCAGCAAUAUUACGUCUU meets or exceeds -2.
Result string: criterion met

Query string: Dear colleague, could you confirm whether AAGAAGCAAUAUUACGGAAU has self-splicing fitness (ln) at or above -2?
Result string: criterion met

Query string: Please tell me: is the sequence CAUCAGCAAUAUUACGUCUU at or over -2 in terms of self-splicing fitness (ln)?
Result string: criterion not met

Query string: Does UCUGAGCAAUAUUACGGUCC have a reported self-splicing fitness (ln) of at least -2?
Result string: criterion not met

Query string: Exam item: decide whether the reported self-splicing fitness (ln) for UUGUAGCAAUAUUACGGAAA is at least -2.
Result string: criterion not met
